From: ChEMBL document CHEMBL3879907

- measured.target: Mu-type opioid receptor (Homo sapiens)
- test.summary: Intrinsic activity at human mu opioid receptor expressed in CHOK1 cell membranes at 0.00001 to 20 uM after 30 mins by GTP-Eu nucleotide exchange assay relative to DAMGO
- Assay type: functional
- test.parameters: CHO-K1
observable: Intrinsic activity

Below: 5 compounds and their reported Intrinsic activity.
NC(=O)c1cccc([C@H]2C[C@H]3CC[C@@H](C2)N3CCN(CC23CC4CC(CC(C4)C2)C3)C(=O)CO)c1
< 40%
CCCCCNC(=O)N(CCN1[C@@H]2CC[C@H]1C[C@@H](c1cccc(O)c1)C2)CC1CCCCC1
< 40%
NC(=O)c1cccc([C@H]2C[C@H]3CC[C@@H](C2)N3CCN(CCC2CCCCC2)C(=O)CO)c1
< 40%
C[C@H](CN1[C@@H]2CC[C@H]1C[C@@H](c1cccc(O)c1)C2)N(Cc1ccccc1)C(=O)CC1CCCC1
< 40%
O=C(O)CCC(=O)N(CCN1[C@@H]2CC[C@H]1C[C@@H](c1cccc(O)c1)C2)CC1CCCCC1 (single isomer, unassigned)
< 40%

Okay, here is my list. What is Intrinsic activity for each of these?
1. O=C(O)CS(=O)(=O)CC(=O)N(CCN1[C@@H]2CC[C@H]1C[C@@H](c1cccc(O)c1)C2)CC1CCCCC1
2. CC(C)C[C@H](O)C(=O)N(CCN1[C@@H]2CC[C@H]1C[C@@H](c1cccc(C(N)=O)c1)C2)CC1CCCCC1
3. CC1CCC(CN(CCN2[C@@H]3CC[C@H]2C[C@@H](c2cccc(C(N)=O)c2)C3)C(=O)[C@@H](O)CO)CC1 (stereo partly drawn)

Response:
1. < 40%
2. < 40%
3. < 40%

* * *

Could you please report measured Intrinsic activity for the items listed next?
- measured.target: UniProtKB P35372
- Sequence (P35372 whole entry): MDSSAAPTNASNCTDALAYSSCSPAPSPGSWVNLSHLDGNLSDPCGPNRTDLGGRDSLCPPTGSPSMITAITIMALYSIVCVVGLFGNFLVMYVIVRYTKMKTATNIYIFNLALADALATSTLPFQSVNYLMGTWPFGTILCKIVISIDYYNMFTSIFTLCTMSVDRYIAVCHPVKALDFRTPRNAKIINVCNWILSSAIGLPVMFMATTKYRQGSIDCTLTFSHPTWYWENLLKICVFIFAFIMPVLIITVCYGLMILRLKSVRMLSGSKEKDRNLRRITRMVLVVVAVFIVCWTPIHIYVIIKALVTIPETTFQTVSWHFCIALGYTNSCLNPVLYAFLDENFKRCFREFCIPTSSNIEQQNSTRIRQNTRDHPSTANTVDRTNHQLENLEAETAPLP
- test.summary: Intrinsic activity at human mu opioid receptor expressed in CHOK1 cell membranes at 0.00001 to 20 uM after 30 mins by GTP-Eu nucleotide exchange assay relative to DAMGO
- Type: functional
- test.parameters: CHO-K1

CS(=O)(=O)CC(=O)N(CCc1ccc(F)cc1)CCN1[C@@H]2CC[C@H]1C[C@@H](c1cccc(C(N)=O)c1)C2.O=C(O)C(F)(F)F
< 40%
CN[C@@H](CO)C(=O)N(CCN1[C@@H]2CC[C@H]1C[C@@H](c1cccc(C(N)=O)c1)C2)CC1CCCCC1.O=C(O)C(F)(F)F.O=C(O)C(F)(F)F
< 40%

// next entry
Request: Tell me reported Intrinsic activity for NC(=O)c1cccc([C@H]2C[C@H]3CC[C@@H](C2)N3CCN(Cc2c(F)cccc2F)C(=O)[C@@H](O)Cc2ccccc2)c1.O=C(O)C(F)(F)F , tested with UniProtKB P35372.
Response: < 40%

* * *

- measured.target: Mu-type opioid receptor (Homo sapiens)
- test.summary: Intrinsic activity at human mu opioid receptor expressed in CHOK1 cell membranes at 0.00001 to 20 uM after 30 mins by GTP-Eu nucleotide exchange assay relative to DAMGO
- Type: functional
- test.parameters: CHO-K1
observable: Intrinsic activity

Here are 5 compounds together with their reported answers.
CC(C)NC(=O)N(CCN1[C@@H]2CC[C@H]1C[C@@H](c1cccc(C(N)=O)c1)C2)CC1CCCCC1
< 40%
NC(=O)c1cccc([C@H]2C[C@H]3CC[C@@H](C2)N3CCN(Cc2c(F)cccc2F)C(=O)[C@H]2CC[C@H](O)CC2)c1.O=C(O)C(F)(F)F
< 40%
CS(=O)(=O)Nc1cccc([C@H]2C[C@H]3CC[C@@H](C2)N3CCN(CC2CCCCC2)C(=O)CO)c1
< 40%
NC(=O)c1cccc([C@H]2C[C@H]3CC[C@@H](C2)N3CCN(CCc2ccc(F)cc2)C(=O)CO)c1.O=C(O)C(F)(F)F
< 40%
C[C@H](O)C(=O)N(CCN1[C@@H]2CC[C@H]1C[C@@H](c1cccc(C(N)=O)c1)C2)Cc1c(F)cccc1F.O=C(O)C(F)(F)F
< 40%

Batch of 2 compounds: report Intrinsic activity for each.
1. CC(C)(CC(=O)O)CC(=O)N(CCN1[C@@H]2CC[C@H]1C[C@@H](c1cccc(O)c1)C2)CC1CCCCC1
2. NC(=O)c1cccc([C@H]2C[C@H]3CC[C@@H](C2)N3CCN(CC2CCCCC2)C(=O)CCCO)c1

Response:
< 40%
< 40%
